Molecular target: T1, recombinant soluble human CEA (extracellular domain, AA 1-687 of huCEA, C-terminal 6xHis) (human, UniProt P06731 35-687)
T1 construct: also called sCEA; soluble CEA
T1 sequence: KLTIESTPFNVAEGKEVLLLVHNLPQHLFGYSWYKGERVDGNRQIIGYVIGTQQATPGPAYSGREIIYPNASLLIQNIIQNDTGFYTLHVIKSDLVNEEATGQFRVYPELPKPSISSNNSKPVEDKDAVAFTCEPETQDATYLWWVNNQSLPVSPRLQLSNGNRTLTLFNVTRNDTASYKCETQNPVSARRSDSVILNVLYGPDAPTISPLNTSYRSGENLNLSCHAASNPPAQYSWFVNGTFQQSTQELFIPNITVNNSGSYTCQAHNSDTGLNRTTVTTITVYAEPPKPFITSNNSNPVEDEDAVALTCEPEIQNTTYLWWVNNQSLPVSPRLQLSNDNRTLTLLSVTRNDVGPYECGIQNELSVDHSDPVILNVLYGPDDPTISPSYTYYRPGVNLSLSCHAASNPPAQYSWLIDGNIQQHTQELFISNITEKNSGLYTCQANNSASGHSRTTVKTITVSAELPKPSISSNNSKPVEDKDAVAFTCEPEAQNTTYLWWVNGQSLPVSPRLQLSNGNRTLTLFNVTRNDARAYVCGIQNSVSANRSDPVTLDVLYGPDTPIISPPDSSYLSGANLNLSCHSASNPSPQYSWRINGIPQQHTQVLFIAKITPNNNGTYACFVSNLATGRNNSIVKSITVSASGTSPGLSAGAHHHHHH
Test: SPR; kinetics on huCEA, IgG format
Listing: kon of selected binders
Dear colleague, please return just the value in M⁻¹ s⁻¹, with no unit written.

Example results:
[
  {
    "binder": "BGA6710 variant Y57D (antibody, V domains shown, IgG format; change in the heavy chain) VH: QVQLVQSGAEVKKPGASVKVSCKASGYIFTSYYLHWVRQAPGQGLEWIGYINPQTGDTSYAQKFQGRVTMTRDTSTSTVYMELSSLRSEDTAVYYCAREYGNYNYPLDYWGQGTLVTVSS VL: DIQMTQSPSSLSASVGDRVTITCRASENQYGYLAWYQQKPGKVPKLLIYNYKNLVEGVPSRFSGSGSGTDFTLTISSLQPEDVATYYCQHHLGTPYTFGQGTKVEIK",
    "kon [M⁻¹ s⁻¹]": 107000
  },
  {
    "binder": "BGA6710 variant L92E (antibody, V domains shown, IgG format; L92E in the light chain) VH: QVQLVQSGAEVKKPGASVKVSCKASGYIFTSYYLHWVRQAPGQGLEWIGYINPQTGYTSYAQKFQGRVTMTRDTSTSTVYMELSSLRSEDTAVYYCAREYGNYNYPLDYWGQGTLVTVSS VL: DIQMTQSPSSLSASVGDRVTITCRASENQYGYLAWYQQKPGKVPKLLIYNYKNLVEGVPSRFSGSGSGTDFTLTISSLQPEDVATYYCQHHEGTPYTFGQGTKVEIK",
    "kon [M⁻¹ s⁻¹]": 41700
  }
]

Read the next record carefully.
[Q] Return kon for the following binder: BGA6710 (antibody, human IgG1, V domains shown, BGA2433 with W33Y (VH) and T51Y (VL); wild-type human IgG1 format) VH: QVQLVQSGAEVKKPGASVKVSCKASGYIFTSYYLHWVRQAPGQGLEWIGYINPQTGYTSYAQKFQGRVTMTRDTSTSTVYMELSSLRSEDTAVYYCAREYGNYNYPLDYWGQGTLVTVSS VL: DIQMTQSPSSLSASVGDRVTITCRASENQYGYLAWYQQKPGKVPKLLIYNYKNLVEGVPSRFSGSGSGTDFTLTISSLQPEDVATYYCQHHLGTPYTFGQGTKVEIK
[A] 113000
